The next entries give measured IC50 for c-Cbl (Homo sapiens (Human), UniProt P22681).
measurement.name: IC50 (nM)

Cn1cnnc1[C@@H](F)C1(c2cccc(NC(=O)c3cc(CN)cc(C(F)(F)F)n3)c2)COC1.O=CO [Compound 65, formate]    230

1: Cn1cnnc1[C@@H](F)C1(c2cccc(NC(=O)c3cc(CN4CCC5(CC5)C4)nc(C4CC4)n3)c2)COC1
2: Cn1cnnc1CC1(c2cccc(NC(=O)c3nc(C(F)(F)F)c[nH]3)c2)COC1
3: Cn1cnnc1CC1(c2cccc(NC(=O)c3cc(CN4CCC5(CC5)C4)cc(C(F)(F)F)n3)c2)COC1
4: Cn1cnnc1[C@@H](F)[C@](C)(F)c1cccc(NC(=O)c2cc(CN3CCC4(CC4)C3)nc(C3CC3)n2)c1
Task field, ranking: reported IC50, descending order. Hello, could you send the labels back in the order asked? Thank you.
2, 4, 1, 3

a: CC(C)[C@H]1CN(C)CCN1Cc1cc(C(=O)Nc2cccc(C3([C@H](F)c4nncn4C)COC3)c2)nc(C2CC2)c1
b: Cn1cnnc1[C@H](F)C1(c2cccc(NC(=O)c3cc(CN4CC(C)(F)C4)cc(C4CC4)n3)c2)COC1
// which entry reports the smaller IC50, a or b ? Please reply using the label of the selected record.
a
(a: 8 nM, b: 31 nM)
